Assay: Ocular pharmacokinetics of formulations, Example 20-5
Type: in vivo, Dutch Belted rabbits
Conditions: Dutch Belted, rabbit, cornea, topical, 4 mg/mL (30 μL per eye, bilateral); Group 5: 4 mg/mL suspension (Control), 30 μm particles (Table 19-1) / Native (≈50) (Table 19-2), TRIS 0.60%, glycerol 2%, HEC 0.2%, HPMC 0.08%, Vitamin K3 1 μM, pH 6, QD for 4 days; 1 hr post dose on Day 5; read-out: Cornea concentration
Procedure: The study design (Table 19-1) consisted of forty-seven (47) Dutch Belted rabbits, each receiving a 30 μL bilateral topical ocular dose. Various suspension formulations of the present application were evaluated and compared against a cyclodextrin-based eye drops solution (Control Group 1, Table 19-1). […] Ocular sampling occurred one hour following the first daily dose on Day 5 for all groups. […] For Group 5 only, samples were analyzed for Vitamin K3. […]
Observation Type: concentration at 1 h (µM)
Field: numeric (µM). Do not append units.

Task: I would be grateful if you could share the reported concentration at 1 h for Cl.NC(=O)c1c(OCc2c(F)cc(Br)cc2F)nsc1NC(=O)NCCCCN1CCCC1 [Compound-I, hydrochloride] .
Result: 4.47

Source of measurements: patent US10183014B2
